Reported Ki by item:
Target entity: Mu-type opioid receptor (Homo sapiens, UniProt P35372)
Sequence (P35372 whole entry): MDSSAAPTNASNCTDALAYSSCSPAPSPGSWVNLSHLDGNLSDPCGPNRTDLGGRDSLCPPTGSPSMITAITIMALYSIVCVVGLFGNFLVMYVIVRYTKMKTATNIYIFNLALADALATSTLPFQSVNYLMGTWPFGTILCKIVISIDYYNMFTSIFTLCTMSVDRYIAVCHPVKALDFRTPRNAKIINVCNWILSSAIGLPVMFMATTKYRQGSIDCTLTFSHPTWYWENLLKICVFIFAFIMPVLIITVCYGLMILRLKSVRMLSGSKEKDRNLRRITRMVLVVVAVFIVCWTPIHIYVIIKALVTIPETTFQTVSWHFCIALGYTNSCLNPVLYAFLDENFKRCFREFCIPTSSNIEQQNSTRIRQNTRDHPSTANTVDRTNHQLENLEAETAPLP
Measurement protocol: Binding affinity to mu opioid receptor (unknown origin) assessed as inhibition constant in presence of Levorphanol
Field: numeric (nM). Do not append units.

>  <Smiles text>
C[C@@H]1[C@@H]2Cc3ccc(O)cc3[C@]1(C)CCN2CCc1ccccc1

>  <Unit descriptor>
nM

>  <Ki>
55

$$$$

Now look at this one.
# assay system Mu-type opioid receptor (Homo sapiens, UniProt P35372): give Ki of C[C@H]1[C@H]2Cc3ccc(O)cc3[C@@]1(C)CCN2CCc1ccccc1
0.2

----------
Measurement protocol: Metabolic stability in mini-pig liver microsomes assessed as compound remaining after 1 hr
Format: ADME, Sus scrofa domesticus, Microsome
Condition context: read-out: Stability
Parameter: remaining at 1 h
Quick note: unit goes after the number.

Return value of remaining at 1 h for input [2H]C([2H])([2H])C([2H])([2H])N1CC2(CCN(C([2H])([2H])C([2H])([2H])c3cc(F)ccc3F)CC2)O[C@H](C)C1=O , no commentary.
64%
